biological target: BCR-FMS/BaF3 cells (Homo sapiens, UniProt P07333); assay: BCR-FMS/BaF3 cell proliferation assay (ATPlite); assay type: cell-based; settings: Kit IC50/Fms IC50, BCR-KIT/BaF3 vs BCR-FMS/BaF3 cells
Sequence (P07333 20-972 limits assumed, change not shown): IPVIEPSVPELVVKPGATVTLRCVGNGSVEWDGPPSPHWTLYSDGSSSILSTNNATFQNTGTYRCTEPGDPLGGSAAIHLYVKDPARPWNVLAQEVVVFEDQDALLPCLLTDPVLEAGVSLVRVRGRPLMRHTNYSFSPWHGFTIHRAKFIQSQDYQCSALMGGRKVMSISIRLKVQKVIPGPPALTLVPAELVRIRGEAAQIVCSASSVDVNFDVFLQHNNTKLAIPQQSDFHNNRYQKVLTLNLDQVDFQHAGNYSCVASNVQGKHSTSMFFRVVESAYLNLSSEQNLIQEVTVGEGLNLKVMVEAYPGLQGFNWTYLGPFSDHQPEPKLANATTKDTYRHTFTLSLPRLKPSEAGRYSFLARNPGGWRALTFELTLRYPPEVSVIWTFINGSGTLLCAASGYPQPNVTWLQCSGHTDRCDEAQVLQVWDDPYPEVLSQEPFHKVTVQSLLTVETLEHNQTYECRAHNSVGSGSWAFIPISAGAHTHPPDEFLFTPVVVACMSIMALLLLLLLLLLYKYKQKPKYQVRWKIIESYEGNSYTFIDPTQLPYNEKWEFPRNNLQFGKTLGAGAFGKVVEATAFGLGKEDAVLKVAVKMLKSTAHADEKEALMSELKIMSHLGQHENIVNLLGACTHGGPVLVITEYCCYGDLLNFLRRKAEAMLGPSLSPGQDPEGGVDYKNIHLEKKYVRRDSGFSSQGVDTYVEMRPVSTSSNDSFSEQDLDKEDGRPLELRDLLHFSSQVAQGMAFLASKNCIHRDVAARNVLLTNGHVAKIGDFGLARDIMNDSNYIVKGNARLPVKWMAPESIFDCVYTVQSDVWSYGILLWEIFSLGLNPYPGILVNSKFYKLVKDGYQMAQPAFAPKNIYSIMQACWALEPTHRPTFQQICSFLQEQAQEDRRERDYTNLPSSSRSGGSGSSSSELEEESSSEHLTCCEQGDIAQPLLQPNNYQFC
Each record here notes measured BCR/BaF3 selectivity (Kit IC50/Fms IC50).

>  <compound.structure>
Fc1ccc(CNc2ncc(Cc3c[nH]c4ncc(Cl)cc34)cn2)cc1F

>  <BCR/BaF3 selectivity (Kit IC50/Fms IC50)>
<20

$$$$
>  <compound.structure>
Cc1cnc2[nH]cc(Cc3cnc(NCc4ccc(C(F)(F)F)nc4)c(F)c3)c2c1

>  <BCR/BaF3 selectivity (Kit IC50/Fms IC50)>
<20

$$$$
>  <compound.structure>
Cn1cc(F)cc(CNc2ncc(Cc3c[nH]c4ncc(Cl)cc34)cn2)c1=O

>  <BCR/BaF3 selectivity (Kit IC50/Fms IC50)>
>20

$$$$
>  <compound.structure>
COc1ncccc1CNc1ncc(Cc2c[nH]c3ncc(C)cc23)cn1

>  <BCR/BaF3 selectivity (Kit IC50/Fms IC50)>
<20

$$$$
>  <compound.structure>
COc1cc(CNc2ccc(Cc3c[nH]c4ncc(C)cc34)c(F)n2)c(F)cn1

>  <BCR/BaF3 selectivity (Kit IC50/Fms IC50)>
>20

$$$$
>  <compound.structure>
CS(=O)(=O)Nc1cnc2[nH]cc(Cc3ccc(NCc4ccc(Cl)nc4)nc3F)c2c1

>  <BCR/BaF3 selectivity (Kit IC50/Fms IC50)>
>20

$$$$
>  <compound.structure>
Cc1cnc2[nH]cc(Cc3ccc(NCc4ccc(C(F)(F)F)nc4)nc3F)c2c1

>  <BCR/BaF3 selectivity (Kit IC50/Fms IC50)>
>20

$$$$
>  <compound.structure>
Clc1cnc2[nH]cc(Cc3ccc(NCc4ccc(Cl)nc4)nc3)c2c1

>  <BCR/BaF3 selectivity (Kit IC50/Fms IC50)>
<20

$$$$

Source: patent US9096593B2
